biological target: human Siglec-7 on primary human monocyte-derived dendritic cells (human, UniProt Q9Y286 19-467); assay: cell-based or functional assay
Sequence (Q9Y286 19-467): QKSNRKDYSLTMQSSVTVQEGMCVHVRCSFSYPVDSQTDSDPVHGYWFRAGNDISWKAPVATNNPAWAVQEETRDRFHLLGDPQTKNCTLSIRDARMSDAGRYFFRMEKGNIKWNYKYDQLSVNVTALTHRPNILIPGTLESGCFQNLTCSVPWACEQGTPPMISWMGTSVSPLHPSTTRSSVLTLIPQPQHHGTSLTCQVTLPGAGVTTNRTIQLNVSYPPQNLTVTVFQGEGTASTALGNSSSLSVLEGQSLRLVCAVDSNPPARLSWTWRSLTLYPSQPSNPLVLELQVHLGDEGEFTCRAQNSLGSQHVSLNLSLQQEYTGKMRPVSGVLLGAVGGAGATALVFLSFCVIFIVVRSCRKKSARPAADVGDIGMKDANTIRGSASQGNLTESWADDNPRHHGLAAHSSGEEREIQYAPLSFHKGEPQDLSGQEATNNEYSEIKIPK
measurementName: Fold increase in potency compared to AB-H8 (fold)
Answer format: numeric, fold implied, no suffix.

S7AB-H8.34.1 (antibody, V domains shown) VH: QVQLVQSGAEVKKPGASVKVSCKASGYAFTAAWMNWVRQAPGQRLEWIGRIFPGLGHTNYAQKFQGRATLTEDTSTSTAYMELSSLRSEDTAVYYCARDYSDYYFDYWGQGTLVTVSS VL: DIQMTQSPSSLSASVGDRVTITCRGSQDINTYLNWYQQKPGKAPKLLIYYTSRLHSGVPSRFSGSGSGTDYTLTISSLQPEDFATYYCQQGGTLPWTFGQGTKLEIK
3.6

So for S7AB-H8.35.1 (antibody, V domains shown) VH: QVQLVQSGAEVKKPGASVKVSCKASGYAFTEAWMNWVRQAPGQRLEWIGRIFPGYGHTNYAQKFQGRATLTEDTSTSTAYMELSSLRSEDTAVYYCARDYSDYYFDYWGQGTLVTVSS VL: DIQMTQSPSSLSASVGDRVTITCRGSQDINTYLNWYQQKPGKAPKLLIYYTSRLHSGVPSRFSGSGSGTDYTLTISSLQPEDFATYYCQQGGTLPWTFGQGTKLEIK , the logged Fold increase in potency compared to AB-H8 turned out to be 2

What the record says about S7AB-H8.31 (antibody, V domains shown) VH: QVQLVQSGAEVKKPGASVKVSCKASGYAFTETWMNWVRQAPGQGLEWIGRIFPGLGHTNYAQKFQGRATLTEDTSTSTAYMELSSLRSEDTAVYYCARDYSDYYFDYWGQGTLVTVSS VL: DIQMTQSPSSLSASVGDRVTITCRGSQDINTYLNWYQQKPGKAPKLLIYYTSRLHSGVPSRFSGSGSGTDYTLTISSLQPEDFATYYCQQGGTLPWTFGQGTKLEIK : Fold increase in potency compared to AB-H8 is 2.4

Please fill in: Fold increase in potency compared to AB-H8 reported for S7AB-H8.36 (antibody, V domains shown) VH: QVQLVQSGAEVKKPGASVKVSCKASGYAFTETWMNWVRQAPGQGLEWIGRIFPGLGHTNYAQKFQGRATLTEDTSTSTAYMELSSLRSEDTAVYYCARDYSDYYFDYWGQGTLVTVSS VL: DIQMTQSPSSLSASVGDRVTITCRGSQDINTYLNWYQQKPGKAPKLLIYYTSRLHSGVPSRFSGSGSGTDYTLTISSLQPEDFATYYCQQGNVLPWTFGQGTKLEIK = 2.7

These data points were gathered from patent US20210246204A1.
